Test system: Human immunodeficiency virus 1
Assay type: functional, cell-based
ASSAY CONDITIONS: Human immunodeficiency virus 1, A17, MAGI-CCR5, 48 h

MOLECULE: CC1=C(c2nc(-c3ccc(C#N)cc3)cs2)C(c2ccc(O)cc2)NC(=O)N1 (stereo unspecified)
IC90: 95 µM
//
MOLECULE: CC1=C(c2nc(-c3ccc(C#N)cc3)cs2)C(c2ccc(F)nc2)NC(=O)N1 (stereo unspecified)
IC90: > 100 µM
//
MOLECULE: COc1ccc(C2NC(=O)NC(C)=C2c2nc(-c3ccc(C#N)cc3)cs2)cn1 (stereo unspecified)
IC90: > 100 µM
//
MOLECULE: CC1=C(c2nc(-c3ccc(C#N)cc3)cs2)C(c2ccc(Br)nc2)NC(=O)N1 (stereo unspecified)
IC90: > 100 µM
//
MOLECULE: COc1ccc(C2NC(=O)NC(C)=C2c2nc(-c3ccc(C#N)cc3)cs2)cc1 (stereo unspecified)
IC90: 24 µM
//
MOLECULE: CC1=C(c2nc(-c3ccc(C#N)cc3)cs2)C(c2ccc(C(F)(F)F)nc2)NC(=O)N1 (stereo unspecified)
IC90: > 100 µM
